Numbers sourced from ChEMBL document CHEMBL1136633.

method_summary: In vitro stability to pepsin promoting hydrolysis after 1 hr incubation time
Type: ADME
reported_conditions: read-out: Degradation
Where a SMILES comes first, the peptide text is derived from it.
experimental_endpoint: metabolised at 1 h (%)
One number for each entry, in %.

The following compounds have reported results that may help.
>  <compound>
C[C@H](NC(=O)[C@@H]1CCCN1C(=O)[C@H](CCCN=C(N)N)NC(=O)[C@@H](N)CCC(N)=O)C(=O)N[C@@H](CCCCN)C(=O)O (H-QRPAK-OH)

>  <value_measured>
45

$$$$
>  <compound>
C[C@H](N)C(=O)N[C@@H](CCCN=C(N)N)C(=O)N1CCC[C@H]1C(=O)N[C@@H](C)C(=O)N[C@@H](CCCCN)C(=O)O (H-ARPAK-OH)

>  <value_measured>
10

$$$$
>  <compound>
C[C@H](NC(=O)[C@@H]1CCCN1C(=O)[C@H](CCCN=C(N)N)NC(=O)[C@@H](N)CCCCN)C(=O)N[C@@H](CCCCN)C(=O)O (H-KRPAK-OH)

>  <value_measured>
50

$$$$

### Prompt metabolised at 1 h lookup needed for C[C@H](NC(=O)[C@@H]1CCCN1C(=O)[C@H](CCCN=C(N)N)NC(=O)CN)C(=O)N[C@@H](CCCCN)C(=O)O (H-GRPAK-OH) , thanks.
### Response 56

----------
Test system: Rattus norvegicus
method_summary: In vivo thrombolytic activity at a dose of 5.0 mg in male rat
Assay type: functional
Where a SMILES comes first, the peptide text is derived from it.
experimental_endpoint: log10(Activity) (log10 of the value in mg)
Annotation: log10 of Activity, mg basis.

>  <compound>
C[C@@H]1NC(=O)[C@@H](CCCCN)NC(=O)CNC(=O)[C@@H](CCCN=C(N)N)NC(=O)[C@@H]2CCCN2C1=O

>  <log10(Activity)>
1.07

$$$$

Count: 4. Required value per item: log10(Activity).
1. C[C@H](NC(=O)[C@@H]1CCCN1C(=O)[C@H](CCCN=C(N)N)NC(=O)[C@@H](N)CCCCN)C(=O)N[C@@H](CCCCN)C(=O)O (H-KRPAK-OH)
2. C[C@@H]1NC(=O)[C@@H](CCCCN)NC(=O)[C@H](CCC(N)=O)NC(=O)[C@@H](CCCN=C(N)N)NC(=O)[C@@H]2CCCN2C1=O
3. C[C@H](NC(=O)[C@@H]1CCCN1C(=O)[C@H](CCCN=C(N)N)NC(=O)CN)C(=O)N[C@@H](CCCCN)C(=O)O (H-GRPAK-OH)
4. C[C@@H]1NC(=O)[C@@H](CCCCN)NC(=O)[C@H](CCCCN)NC(=O)[C@@H](CCCN=C(N)N)NC(=O)[C@@H]2CCCN2C1=O

### Response
1. -0.55
2. 0.99
3. 0.97
4. 0.79

----------
What metabolised at 8 h was measured for each of the following?
method_summary: In vitro stability to trypsin promoting hydrolysis after 8 hr incubation time
Assay type: ADME
reported_conditions: read-out: Degradation
Where a SMILES comes first, the peptide text is derived from it.
Answers are plain numbers, in %.

Count: 4. Required value per item: metabolised at 8 h.
1. C[C@H](NC(=O)[C@@H]1CCCN1C(=O)[C@H](CCCN=C(N)N)NC(=O)[C@@H](N)CCC(N)=O)C(=O)N[C@@H](CCCCN)C(=O)O (H-QRPAK-OH)
2. C[C@H](N)C(=O)N[C@@H](CCCN=C(N)N)C(=O)N1CCC[C@H]1C(=O)N[C@@H](C)C(=O)N[C@@H](CCCCN)C(=O)O (H-ARPAK-OH)
3. C[C@H](NC(=O)[C@@H]1CCCN1C(=O)[C@H](CCCN=C(N)N)NC(=O)CN)C(=O)N[C@@H](CCCCN)C(=O)O (H-GRPAK-OH)
4. C[C@H](NC(=O)[C@@H]1CCCN1C(=O)[C@H](CCCN=C(N)N)NC(=O)[C@@H](N)CCCCN)C(=O)N[C@@H](CCCCN)C(=O)O (H-KRPAK-OH)

### Response
95
99
98
96
